Just for reference, ChEMBL document CHEMBL1201862 is where these values come from.

molecular target: Beta-galactosidase (Escherichia coli); assay: Dose response counterscreen for EBI2 assay utilizing the enzyme, b-galactosidase.; format: functional
Sequence (Q8VNN2 whole entry): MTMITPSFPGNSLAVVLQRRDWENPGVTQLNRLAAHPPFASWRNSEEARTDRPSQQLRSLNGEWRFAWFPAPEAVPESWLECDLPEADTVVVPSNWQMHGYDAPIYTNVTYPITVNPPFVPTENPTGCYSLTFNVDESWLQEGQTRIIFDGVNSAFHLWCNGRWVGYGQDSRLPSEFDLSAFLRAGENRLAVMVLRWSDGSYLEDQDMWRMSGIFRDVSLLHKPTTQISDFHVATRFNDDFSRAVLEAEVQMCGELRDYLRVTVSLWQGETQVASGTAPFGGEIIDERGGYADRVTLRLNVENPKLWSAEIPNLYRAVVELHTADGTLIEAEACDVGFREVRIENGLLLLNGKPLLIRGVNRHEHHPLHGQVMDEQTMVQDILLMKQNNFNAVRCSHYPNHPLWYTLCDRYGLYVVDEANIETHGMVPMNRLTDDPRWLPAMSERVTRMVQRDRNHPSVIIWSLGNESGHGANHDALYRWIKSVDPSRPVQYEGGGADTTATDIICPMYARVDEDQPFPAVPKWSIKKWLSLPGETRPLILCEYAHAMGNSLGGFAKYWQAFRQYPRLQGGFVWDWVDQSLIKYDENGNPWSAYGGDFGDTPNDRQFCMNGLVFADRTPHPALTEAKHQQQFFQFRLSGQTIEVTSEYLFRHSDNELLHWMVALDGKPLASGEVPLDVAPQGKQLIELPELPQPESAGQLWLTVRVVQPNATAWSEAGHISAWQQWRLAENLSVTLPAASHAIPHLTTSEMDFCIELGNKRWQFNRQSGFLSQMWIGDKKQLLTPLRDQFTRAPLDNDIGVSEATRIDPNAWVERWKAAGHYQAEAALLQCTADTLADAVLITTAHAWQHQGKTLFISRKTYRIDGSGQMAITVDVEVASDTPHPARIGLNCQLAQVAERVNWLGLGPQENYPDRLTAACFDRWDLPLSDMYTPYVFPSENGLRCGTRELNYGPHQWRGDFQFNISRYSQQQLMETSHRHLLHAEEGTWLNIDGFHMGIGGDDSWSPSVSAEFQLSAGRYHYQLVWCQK
Active and inactive are the calls of the source.
Here, each record is paired with measured IC50 data.

Here are 4 compounds together with their reported answers.
Look up IC50: CCOC(=O)N(C)c1c(CC)nc2c(OCc3ccc(Cl)cc3Cl)cccn12
121 µM (inactive)

Now give it for Cc1sc2nc(C3CC3)nc(N3CCN(C(=O)c4ccc(Cl)cc4)CC3)c2c1C too.
> 80 µM (inactive)

# iterate: CCc1ccc(CN(C)C(=O)c2cc(=O)c3ccccc3o2)cc1
> 80 µM (inactive)

Here is the next compound: CCOC(=O)N1CCN(C(=O)c2cc3c(O)nc4ccccc4c3s2)CC1
> 80 µM (inactive)

# evaluate next
Would you mind telling me what IC50 value was observed for O=C(COc1ccc2ccccc2c1)N1CCN(C(=O)c2ccc([N+](=O)[O-])cc2)CC1 ?
> 80 µM (inactive)

* * *

Reported EC50 values for the following compounds.
test system: H4; assay: Luminescence Cell-Based Dose Response HTS to Identify Activators of 5'UTR Stem-Loop Driven Prion Protein mRNA Translation in H4 Neuroglioblastoma Cells. [Related pubchem assays: 1829 (Project Summary), 1814 (Primary HTS)]; type: functional; conditions: Homo sapiens
Active and inactive are the calls of the source.

Quick one: EC50 for COc1cc(O)c2c(=O)c(-c3ccc(O[C@@H]4O[C@H](CO)[C@@H](O)[C@H](O)[C@H]4O)cc3)coc2c1 ?
21.2 µM (active)

Next: CCc1cccc(NC(=O)Nc2cccs2)c1
> 120 µM (not active)

What about O=C(NC1CC1)c1cccc(Nc2ccc(-c3ccc4c(c3)OCCO4)nn2)c1 ?
52.2 µM (active)

* * *

Notes on AC50 obtained with Cytochrome P450 3A4 (Homo sapiens).
Sequence (P08684 whole entry): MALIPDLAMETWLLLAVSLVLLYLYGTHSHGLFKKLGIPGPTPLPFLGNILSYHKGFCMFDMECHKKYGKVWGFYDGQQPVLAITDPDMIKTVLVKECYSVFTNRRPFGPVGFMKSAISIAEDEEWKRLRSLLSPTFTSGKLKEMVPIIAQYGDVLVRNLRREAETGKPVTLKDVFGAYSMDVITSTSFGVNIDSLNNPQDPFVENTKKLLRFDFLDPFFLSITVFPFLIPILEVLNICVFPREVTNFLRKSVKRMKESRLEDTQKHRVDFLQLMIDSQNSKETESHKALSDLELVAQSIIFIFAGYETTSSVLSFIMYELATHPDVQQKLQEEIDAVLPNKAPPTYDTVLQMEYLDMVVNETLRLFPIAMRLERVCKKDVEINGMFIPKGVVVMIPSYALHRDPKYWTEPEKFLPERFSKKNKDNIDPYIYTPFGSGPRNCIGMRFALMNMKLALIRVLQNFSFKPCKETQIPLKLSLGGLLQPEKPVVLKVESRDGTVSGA

Entry under review: CN(C(=S)NC(=O)c1ccccc1Br)C1CCCCC1 . Reported AC50?
2.51 µM (inconclusive)

Next up: O=C(N/N=C/c1ccc([N+](=O)[O-])s1)c1ccccc1Br
22.4 µM (inconclusive)

Same thing, different molecule: COC(=O)CSc1nnc(-c2ccccc2OC)n1-c1ccc(C)cc1
15.8 µM (inconclusive)

***
Any idea what its AC50 is? The molecule is Clc1cncc(N2CCNCC2)n1 [MK-212]
15.8 µM (inconclusive)

Try this molecule next: COc1cc(OC)c(C(=O)CCCCN2CCC3(CC2)NC(=O)NC3=O)cc1NS(=O)(=O)c1ccc(C(F)(F)F)cc1 [RS-102,221]
7.94 µM (inconclusive)

What do you get for COc1ccccc1-c1c(C(F)(F)F)oc2cc(OC(=O)c3cccc([N+](=O)[O-])c3C)ccc2c1=O ?
12.6 µM (inconclusive)

And what about the molecule CCOc1ccc(-c2nn(-c3ccccc3)cc2/C=C(\C#N)S(=O)(=O)c2ccccc2)cc1C ?
11.2 µM (inconclusive)

Item: COc1cc(OC)c2nc(C)c3c(c2c1)N(c1ccc(O)cc1)CC3
10 µM (inconclusive)

What about this molecule? N#Cc1cccc(-c2cc(NCc3cccs3)ncn2)c1
1.58 µM (inconclusive)

Next entry: O=C(COc1ccccc1Cl)Nc1cc(Cl)ccc1Oc1ccccc1
15.8 µM (inconclusive)

One more molecule: COc1ccc(S(=O)(=O)N2CCC[C@H]2C(=O)NC2=NCCS2)cc1
17.8 µM (inconclusive)

Now the same for O=c1c(-c2ccc(F)cc2)nc2cnc(Oc3cccc(Cl)c3)nc2n1C[C@H]1CCCO1
12.6 µM (inconclusive)
